Some compounds, each annotated with its measured IC50.
# Test system: COLO320DM cells
# procedure-summary: COLO320DM proliferation assay
# Type: cell-based, human
# reported-conditions: read-out: COLO320DM Proliferation Abs IC50

{"columns": ["compound", "IC50"],
 "data": [
  ["CC(=O)N1CCC[C@]12CC=CCCCC1(CCCC=CCCCOC(=O)N3CC[C@@]4(C3)NC(=O)[C@H](CCCCNC(=O)CC[C@@H](C(=O)N[C@@H](C)C(N)=O)NC(=O)[C@H](Cc3csc5ccccc35)NC(=O)[C@H](Cc3ccncc3)NC4=O)NC(=O)[C@H](Cc3ccccc3)NC(=O)[C@H](C)NC(=O)C(C)(C)NC(=O)[C@H](Cc3cccc(C(=O)O)c3)NC(=O)[C@H](CC(=O)O)NC1=O)NC(=O)[C@H](CC(C)(C)C)NC(=O)[C@H](CC(=O)O)NC2=O (relative stereo)", "> 20 µM"],
  ["CC(=O)N1CCC[C@]12CC=CCCCC1(CCCC=CCCCOC(=O)N3CC[C@@]4(C3)NC(=O)[C@H](CCCCNC(=O)CC[C@@H](C(=O)N[C@@H](C)C(N)=O)NC(=O)[C@H](Cc3csc5ccccc35)NC(=O)[C@H](Cc3ccsc3)NC4=O)NC(=O)[C@H](Cc3ccccc3)NC(=O)[C@H](C)NC(=O)[C@H](Cc3ccccc3)NC(=O)[C@H](Cc3cccc(C(=O)O)c3)NC(=O)[C@H](CC(=O)O)NC1=O)NC(=O)[C@H](CC(C)(C)C)NC(=O)[C@H](CC(=O)O)NC2=O (relative stereo)", "> 20 µM"],
  ["CC(=O)N1CCC[C@]12CC=CCCCC1(CCCC=CCCCOC(=O)N3CC[C@@]4(C3)NC(=O)[C@H](CCCCNC(=O)CC[C@@H](C(=O)N[C@@H](C)C(N)=O)NC(=O)[C@H](Cc3csc5ccccc35)NC(=O)[C@H](Cc3ccccc3C(F)(F)F)NC4=O)NC(=O)[C@H](Cc3ccccc3)NC(=O)[C@H](C)NC(=O)C(C)(C)NC(=O)[C@H](Cc3cccc(C(=O)O)c3)NC(=O)[C@H](CC(=O)O)NC1=O)NC(=O)[C@H](CC(C)(C)C)NC(=O)[C@H](CC(=O)O)NC2=O (single isomer, unassigned)", "≤ 10 µM"]
]}
